Tested on: KM12 colon
Assay: NCI tumour cell line growth inhibition, 48 h
attribute measured: TGI (µM)

O=C(N=Nc1c(O)[nH]c2c(Cl)cc(Cl)cc12)c1ccccc1O; 29.5
CC[C@@]1(O)C[C@H](OC2CC(N(C)C)C(OC3CC(O)C(OC4CC(O)C(O)C(C)O4)C(C)O3)C(C)O2)c2c(cc3c(c2O)C(=O)c2c(O)ccc(O)c2C3=O)[C@H]1C(=O)OC (stereo not given in full); 3.03
c1ccc(-c2c(-c3ccccc3)[n+](Cc3ccc4ccccc4c3)c(-c3cccc4ccccc34)n2Cc2ccc3ccccc3c2)cc1; 0.758

====

System: DU-145 prostate
Assay: NCI tumour cell line growth inhibition, 48 h
Here the recorded TGI is given for each entry.
attribute measured: TGI (µM)

CCCc1c(Cl)nc(Cl)nc1Cl; 9.82
CCOC(=O)/C=C(\C(=O)OCC)n1ccc(=O)n(Cc2cnnn2COCCOC(C)=O)c1=O; 37.7
O=C(CCl)Nc1ccc2c(c1)C(=O)c1ccccc1C2=O; 3.36
Cc1[nH]c2nccn2c(=O)c1CCCl; 66.7
Cn1cc(-c2nc3c(F)cc4[nH]ncc4c3c3c2CCCC3)c(C(F)(F)F)n1; 77.7

# credit: PubChem BioAssay (NCI)
